# Tested on: Bovine brain tubulin (colchicine site)
# experimental protocol: Inhibition of [3H]colchicine binding to tubulin
# setup conditions: compound 5 μM; tubulin 1 μM, [3H]colchicine 5 μM
property label: Colchicine Binding Inhibition [%], 5 μM (%)

Recorded results for 3 compounds are shown here.
| compound | measurement unit | Colchicine Binding Inhibition [%], 5 μM |
| --- | --- | --- |
| COc1ccc(/C=C\c2cc(OC)c(OC)c(OC)c2)cc1O [CA-4, combretastatin A-4, reference compound] | % | 98 |
| CCn1ccc2c3c(=O)cc(-c4ccccc4)[nH]c3ccc21 [Compound 38, 3-ethyl-7-PPyQ, reference compound] | % | 73 |
| COc1cc(Cn2ccc3c4c(=O)cc(-c5ccccc5)[nH]c4ccc32)cc(OC)c1OC | % | 30 |

(A) CCn1ccc2c3c(=O)cc(-c4cccnc4)[nH]c3ccc21
(B) CCOC(=O)CCn1ccc2c3c(=O)cc(-c4ccccc4)[nH]c3ccc21
IN: Param metric = Colchicine Binding Inhibition [%], 5 μM; output whichever of A , B has the minimum value. Answer by stating the label of the chosen item.
OUT: A
